Provide the recorded Geo Mean in M1 for the entries that follow.
measurement target: T1, human PD-L1 on hPD-L1/CHO-K1 overexpressing cells (human, UniProt Q9NZQ7 19-290)
T1 construct: whole, on cells; also called human PD-L1-expressing cells
T1 sequence (Q9NZQ7 19-290): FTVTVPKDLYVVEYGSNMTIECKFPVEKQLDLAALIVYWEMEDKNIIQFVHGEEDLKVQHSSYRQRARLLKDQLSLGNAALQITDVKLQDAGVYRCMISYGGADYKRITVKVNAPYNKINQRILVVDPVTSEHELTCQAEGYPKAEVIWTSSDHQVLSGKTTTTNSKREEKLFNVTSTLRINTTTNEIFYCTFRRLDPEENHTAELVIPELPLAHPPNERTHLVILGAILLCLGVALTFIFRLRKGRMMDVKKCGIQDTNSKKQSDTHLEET
assay method text: flow cytometry on hPD-L1/CHO-K1 cells (sheet label hPD-1/CHO-K1)
Lab note: jot down the number only; don't add units.

*Q* Consider the binder ME4.B10 anti-PD-L1 antibody (IgG form) (antibody, V domains shown) VH: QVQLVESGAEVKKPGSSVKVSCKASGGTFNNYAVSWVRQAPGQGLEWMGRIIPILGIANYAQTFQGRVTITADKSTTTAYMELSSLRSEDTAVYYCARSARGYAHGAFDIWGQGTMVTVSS VL: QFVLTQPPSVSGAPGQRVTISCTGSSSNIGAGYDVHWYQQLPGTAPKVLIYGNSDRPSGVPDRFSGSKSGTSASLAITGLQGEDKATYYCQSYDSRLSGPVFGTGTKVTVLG and give its measured Geo Mean in M1.
*A* 19.4

*Q* Entry to check: ME4.B12 anti-PD-L1 antibody (IgG form) (antibody, V domains shown) VH: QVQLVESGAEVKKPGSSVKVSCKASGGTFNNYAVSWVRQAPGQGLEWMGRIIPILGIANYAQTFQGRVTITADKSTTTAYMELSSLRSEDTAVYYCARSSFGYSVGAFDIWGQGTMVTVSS VL: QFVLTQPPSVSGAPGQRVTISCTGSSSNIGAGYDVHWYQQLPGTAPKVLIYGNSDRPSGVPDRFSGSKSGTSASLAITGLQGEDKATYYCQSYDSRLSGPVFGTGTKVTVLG
*A* 29.2

*Q* Ok, now ME4.A12 anti-PD-L1 antibody (IgG form) (antibody, V domains shown) VH: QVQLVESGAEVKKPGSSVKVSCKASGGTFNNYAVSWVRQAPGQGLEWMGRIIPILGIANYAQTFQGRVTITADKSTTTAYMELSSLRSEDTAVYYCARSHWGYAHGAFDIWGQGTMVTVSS VL: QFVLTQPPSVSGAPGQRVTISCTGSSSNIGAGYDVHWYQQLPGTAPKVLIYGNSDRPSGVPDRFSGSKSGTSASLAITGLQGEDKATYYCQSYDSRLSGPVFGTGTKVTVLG
*A* 18.4

Data provenance: patent US20210054078A1
